Target: T1, human OPGbp [143-317] (human, UniProt O14788 143-317)
T1 construct: also called OPGL
T1 sequence (looked up): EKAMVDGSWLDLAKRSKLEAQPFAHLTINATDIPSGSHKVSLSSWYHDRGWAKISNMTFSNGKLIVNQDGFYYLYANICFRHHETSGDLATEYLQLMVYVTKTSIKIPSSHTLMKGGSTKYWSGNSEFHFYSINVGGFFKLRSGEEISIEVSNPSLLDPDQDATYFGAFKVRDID
Experiment: SPR (BIAcore), immobilized OPGbp [143-317]
Consider the following binders; for each one, report its kon.
Give bare numbers, in M⁻¹ s⁻¹.

binder="“AT” antibody variant N98F (heavy chain CDR3) (antibody, name in Kabat numbering, V domains shown, not shown: human IgG1 CH1, hinge, CH2 and CH3) VH: QVQLVQSGAEVRKPGASVKVSCKASGYDFSNYAIHWVRQAPGQRLEWMGWINAGNGNTKFSQKFQGRITVTRDTAASTAYMELRSLRSEDTAVYYCARDSSFMVRGIIIAYYFDYWGQGTLVTVSS VL: EIVMTQSPSSLSASVGDRVTITCRASQSISRYLNWYQLKPGKAPRLLIYGASSLQSGVPSRFSGSGSGAEFTLTISSLQPEDIATYYCQHTRAFGQGTKVEIKR" test_readout=kon unit_text="M⁻¹ s⁻¹" val=3700

Please look at the following binder next.
Enquiry: What kon value was documented for this binder, “AT” antibody variant N98R (heavy chain CDR3) (antibody, name in Kabat numbering, V domains shown, not shown: human IgG1 CH1, hinge, CH2 and CH3) VH: QVQLVQSGAEVRKPGASVKVSCKASGYDFSNYAIHWVRQAPGQRLEWMGWINAGNGNTKFSQKFQGRITVTRDTAASTAYMELRSLRSEDTAVYYCARDSSRMVRGIIIAYYFDYWGQGTLVTVSS VL: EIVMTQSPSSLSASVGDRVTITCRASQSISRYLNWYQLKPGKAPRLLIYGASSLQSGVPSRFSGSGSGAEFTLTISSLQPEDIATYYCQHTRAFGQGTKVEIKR ?
Return: 3.59e+06

Data provenance is patent US20140147444A1.
